assay: Toxicity liver stage against HepG2, at 10uM; type: cell-based; design: test concentration 10 uM, cell line HepG2-A16-CD81EGFP; details: human, HepG2-A16-CD81EGFP cells; read-out: INHIBITION
Please respond with reported cytotoxicity at 10 µM for every item in the list.

// solved cases for cytotoxicity at 10 µM follow
Cc1occc1C(=O)N1CCCn2cnc(CN3CCCC3=O)c2C1 | 4.24%
Cc1nc(C(C)NC(=O)c2cn(Cc3ccc(Cl)cc3)nn2)n[nH]1 (centres undefined) | 10.2%
CC(C)Nc1nc(N2CCCC2)nc2c1CN(C(C)C)CC2 | 2.06%
N[C@@H]1CCN(Cc2cccc(N3CCOCC3)c2)C[C@H]1O | 11.8%

Please report cytotoxicity at 10 µM for every entry that follows.
1. CN(Cc1ccnc2ccccc12)C1CCS(=O)(=O)C1 (centres undefined)
2. COc1ccc(-c2ccccc2CN)c(OC)c1
3. O=C1NCCCC1NC(=O)C1(c2cccc(Cl)c2)CCC1 (centres undefined)
4. CCN(CC)Cc1ccccc1NCc1c(C)noc1C
5. COc1c(C)cnc(CN(C)C(=O)c2ccccc2F)c1C

1. 4.36%
2. 7.35%
3. -2.09%
4. -2.04%
5. -9.11%

Please report cytotoxicity at 10 µM for every entry that follows.
1. Cc1cnc(C(=O)N2CCC(C(=O)c3cc(F)ccc3F)CC2)cn1
2. COCCN1CC[C@H]2CN(c3cc(OC)ncn3)C[C@@H]2C1=O
3. CCCc1cc(=O)[nH]c(-c2ccccc2CN(C)CCC(C)C)n1
4. Cc1ccc(CN(C)C(=O)C(C)n2ccnc2C(C)C)o1 (centres undefined)
5. Cc1noc(C)c1CN(C)c1ncnc2ccccc12
6. COC(=O)[C@H](CC(C)C)NC(=O)c1snnc1-c1ccc(OC)cc1

["-5.88%", "10.3%", "3.53%", "5.99%", "-6.4%", "10.1%"]

Please report cytotoxicity at 10 µM for every entry that follows.
1. Cc1cnc(N2CCC(c3ccncc3)CC2)nc1-c1ccnn1C
2. NC(=O)CN(C(=O)c1cccc(C(F)(F)F)c1)C1CCCC1
3. Cn1ccnc1CN1CCOC(C)(C(=O)N2CCOCC2)C1 (centres undefined)
4. O=C(Nc1nncs1)c1ccc(O)nc1

28.7%
-0.296%
1.27%
-6.37%

Please report cytotoxicity at 10 µM for every entry that follows.
1. Cc1nnc([C@@H]2C[C@H]3CN(C(=O)c4c(C)noc4C)C[C@H]3O2)[nH]1
2. COc1cccc2c1ccn2CC(=O)Nc1nc[nH]n1

1: 15.2%; 2: -0.297%

---

assay: Toxicity liver stage against HepG2, at 10uM; type: cell-based; parameters: test concentration 10 uM, cell line HepG2-A16-CD81EGFP; conditions: human, HepG2-A16-CD81EGFP cells; read-out: INHIBITION
Recorded Endpoint: cytotoxicity at 10 µM (%)
Numbers only, in %.

// solved cases for cytotoxicity at 10 µM follow
CC(C)N[C@@H]1CC[C@@H]1NC(=O)c1ccccc1OC(F)(F)C(F)F | 1.77
CN(C)C(=O)c1ccc(C2CCCN2C(=O)CCC2=NNC(=O)CC2)s1 (stereo unspecified) | 9.19

Please report cytotoxicity at 10 µM for every entry that follows.
1. O=C(c1cccc2ncccc12)N1CCCC(n2ccnc2)C1 (stereo unspecified)
2. COC(=O)c1ccc(Cl)c(CN(C)Cc2ncnn2C)c1
3. c1cnc(N2CC3(CCN(C4CCOC4)CC3)c3ccccc32)nc1 (stereo unspecified)
4. CSCc1ccc(N(C)CC2CCCN(C(C)C)C2)nc1 (stereo unspecified)

1. -11.6
2. -7.81
3. -4.2
4. -128
